The values you see were collected from patent US7442805B2.

- system.under.test: recombinant human plasminogen activator inhibitor-1 (PAI-1) (Homo sapiens)
- Construct: purchased Molecular Innovations, Royal Oak, Mich
- Sequence (P05121 24-402): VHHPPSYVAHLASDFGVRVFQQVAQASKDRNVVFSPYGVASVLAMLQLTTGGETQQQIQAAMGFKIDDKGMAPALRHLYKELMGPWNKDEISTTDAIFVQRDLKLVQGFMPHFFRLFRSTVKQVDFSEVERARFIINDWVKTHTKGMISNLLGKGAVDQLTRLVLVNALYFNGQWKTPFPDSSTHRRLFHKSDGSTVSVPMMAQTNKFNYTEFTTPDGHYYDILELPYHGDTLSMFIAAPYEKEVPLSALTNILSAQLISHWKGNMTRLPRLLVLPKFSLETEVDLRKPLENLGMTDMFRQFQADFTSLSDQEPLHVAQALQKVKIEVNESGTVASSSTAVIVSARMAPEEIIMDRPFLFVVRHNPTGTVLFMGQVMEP
- assay.explanation: Primary screen for the PAI-1 inhibition (chromogenic tPA activity assay)
- Format: biochemical
- experimental.parameters: 25 μM test compound; pH 6.6; 140 nM PAI-1, 70 nM tPA
parameter.measured: inhibition at 25 µM (%)

CC(C)C[C@H](NC(=O)c1c(-c2ccccc2)c2cc(NS(=O)(=O)c3ccc(OC(F)(F)F)cc3)ccc2n1C)C(=O)O | 73
Cn1c(C(=O)N[C@@H](Cc2ccccc2)C(=O)O)c(-c2ccccc2)c2cc(NS(=O)(=O)c3ccc(C(C)(C)C)cc3)ccc21 | 77
CC(C)(C)c1ccc(S(=O)(=O)Nc2ccc3c(c2)c(-c2ccccc2)c(C(=O)O)n3Cc2ccccc2)cc1 | 82
O=C(O)c1c(-c2ccccc2)c2cc(NS(=O)(=O)c3ccc(-c4ccccc4)cc3)ccc2n1Cc1ccccc1 | 61

P: O=C(O)c1c(-c2ccc3[nH]ccc3c2)c2cc(NS(=O)(=O)c3ccccc3)ccc2n1Cc1ccccc1
Q: CC(C)(C)c1ccc(-c2c(C(=O)O)n(Cc3ccccc3)c3ccc(NS(=O)(=O)c4ccc(OC(F)(F)F)cc4)cc23)cc1
Task: Select one: P or Q . Criterion: greater recorded inhibition at 25 µM. Field: selected label. Fill in the label of the entry you choose.
Result: Q

====

- system.under.test: recombinant human plasminogen activator inhibitor-1 (PAI-1) (Homo sapiens)
- Construct: purchased Molecular Innovations, Royal Oak, Mich
- assay.explanation: Primary screen for the PAI-1 inhibition (chromogenic tPA activity assay)
- Assay type: biochemical
- experimental.parameters: 25 μM test compound; pH 6.6; 140 nM PAI-1, 70 nM tPA
parameter.measured: inhibition at 25 µM (%)

O=C(O)c1c(-c2ccccc2)c2cc(NS(=O)(=O)c3ccc(OC(F)(F)F)cc3)ccc2n1Cc1ccccc1 [Example 1] | 81
O=C(O)c1[nH]c2ccc(NS(=O)(=O)c3ccc(-c4ccccc4)cc3)cc2c1-c1ccccc1 [Example 21] | 86
O=C(O)c1c(-c2ccccc2)c2cc(NS(=O)(=O)c3ccccc3)ccc2n1C(c1ccccc1)c1ccccc1 [Example 16] | 89

a: CC(C)C[C@H](NC(=O)c1c(-c2ccccc2)c2cc(NS(=O)(=O)c3ccc(-c4ccccc4)cc3)ccc2n1C)C(=O)O [Example 10]
b: CS(=O)(=O)Nc1ccc2c(c1)c(-c1ccccc1)c(C(=O)O)n2C(c1ccccc1)c1ccccc1 [Example 15]
Task: From the items above, decide which of a and b has the lower inhibition at 25 µM reading. Let me know the label of the one you choose.
Result: b
